- TARGET_OF_ASSAY: T1, ectodomain of human CD98hc (human, UniProt P08195 105-529)
- T1 chain: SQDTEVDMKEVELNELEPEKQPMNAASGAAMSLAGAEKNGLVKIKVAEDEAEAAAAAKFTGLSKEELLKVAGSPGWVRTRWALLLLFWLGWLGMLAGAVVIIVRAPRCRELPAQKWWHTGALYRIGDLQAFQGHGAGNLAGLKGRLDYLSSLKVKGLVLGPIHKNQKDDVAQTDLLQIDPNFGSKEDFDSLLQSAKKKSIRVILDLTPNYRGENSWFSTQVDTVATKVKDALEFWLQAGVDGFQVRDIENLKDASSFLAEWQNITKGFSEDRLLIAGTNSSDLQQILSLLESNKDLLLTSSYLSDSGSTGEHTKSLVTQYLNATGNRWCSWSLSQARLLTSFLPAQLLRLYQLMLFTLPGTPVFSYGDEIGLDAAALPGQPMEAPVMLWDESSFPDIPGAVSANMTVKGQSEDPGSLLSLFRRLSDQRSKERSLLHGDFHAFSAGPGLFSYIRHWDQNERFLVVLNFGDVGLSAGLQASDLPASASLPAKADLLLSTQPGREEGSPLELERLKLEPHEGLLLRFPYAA
- PROTOCOL_DESCRIPTION: ELISA, purified VNAR-Fc titrated on coated CD98hc
Examples of binders with documented EC50 follow.

{"BINDER": "VNAR clone F12 fused N-terminally to human IgG1 Fc (VNAR-hFc) (Fc fusion, Bivalent VNAR-Fc from Expi293 cells; also called F12-hFc; VNAR F12-hFc; not shown: human IgG1 Fc (hinge, CH2 and CH3) as encoded by vector pFUSE-hIgG1e3-Fc2) ARVDQTPQTITKEEGESLTINCVLRVHGRALASTSWYRKKSGSTREETISKGGRYVETVNSGSKSFSLRINDLTVEDSGTYRCNVYGLSFGDIEGVKKIDVYGDGTAVTVNA", "OUTPUT_UNIT": "nM", "EC50": 12}
{"BINDER": "VNAR clone H7 fused N-terminally to human IgG1 Fc (VNAR-hFc) (Fc fusion, Bivalent VNAR-Fc from Expi293 cells; not shown: human IgG1 Fc (hinge, CH2 and CH3) as encoded by vector pFUSE-hIgG1e3-Fc2) ARVDQTPQTITKEEGESLTINCVLRYNNPALASTSWYRKKSGSTREETISKGGRYVETVNSGSKSFSLRINDLTVEDSGTYRCNVYFFPSFLVDKLQSHDVYGDGTAVTVNA", "OUTPUT_UNIT": "nM", "EC50": 6}
{"BINDER": "VNAR clone H6 fused N-terminally to human IgG1 Fc (VNAR-hFc) (Fc fusion, Bivalent VNAR-Fc from Expi293 cells; not shown: human IgG1 Fc (hinge, CH2 and CH3) as encoded by vector pFUSE-hIgG1e3-Fc2) ARVDQTPQTITKEEGESLTINCVLRTHSNALASTSWYRKKSGSTREETISKGGRYVETVNSGSKSFSLRINDLTVEDSGTYRCNVYAFLEIQPNIYHEFDVYGDGTAVTVNA", "OUTPUT_UNIT": "nM", "EC50": 6}
{"BINDER": "VNAR clone E12 fused N-terminally to human IgG1 Fc (VNAR-hFc) (Fc fusion, Bivalent VNAR-Fc from Expi293 cells; not shown: human IgG1 Fc (hinge, CH2 and CH3) as encoded by vector pFUSE-hIgG1e3-Fc2) ARVDQTPQTITKEEGESLTINCVLRTQDPALASTSWYRKKSGSTREETISKGGRYVETVNSGSKSFSLRINDLTVEDSGTYRCNVYFLLAPTKTKLQGIDVYGDGTAVTVNA", "OUTPUT_UNIT": "nM", "EC50": 56}
{"BINDER": "VNAR clone D1 fused N-terminally to human IgG1 Fc (VNAR-hFc) (Fc fusion, Bivalent VNAR-Fc from Expi293 cells; also called D1-hFc; not shown: human IgG1 Fc (hinge, CH2 and CH3) as encoded by vector pFUSE-hIgG1e3-Fc2) ARVDQTPQTITKEEGESLTINCVLRHNYSALASTSWYRKKSGSTREETISKGGRYVETVNSGSKSFSLRINDLTVEDSGTYRCNVYGISFIEEKIRYDFDVYGDGTAVTVNA", "OUTPUT_UNIT": "nM", "EC50": 28}
{"BINDER": "VNAR clone G3 fused N-terminally to human IgG1 Fc (VNAR-hFc) (Fc fusion, Bivalent VNAR-Fc from Expi293 cells; not shown: human IgG1 Fc (hinge, CH2 and CH3) as encoded by vector pFUSE-hIgG1e3-Fc2) ARVDQTPQTITKETGESLTINCVLRDNNCALSTTYWYRKKSGSTNEENISKGGRYVETVNSGSKSFSLRINDLTVEDSGTYRCKVHFFPSFCNSTSIRSVDVYGGGTVVTVNA", "OUTPUT_UNIT": "nM", "EC50": 107}
{"BINDER": "VNAR clone F1 fused N-terminally to human IgG1 Fc (VNAR-hFc) (Fc fusion, Bivalent VNAR-Fc from Expi293 cells; also called F1-hFc; not shown: human IgG1 Fc (hinge, CH2 and CH3) as encoded by vector pFUSE-hIgG1e3-Fc2) ARVDQTPQTITKEEGESLTINCVLRVHGRALASTSWYRKKSGSTREETISKGGRYVETVNSGSKSFSLRINDLTVEDSGTYRCNVYGLSSGDIEGVKKIDVYGDGTAVTVNA", "OUTPUT_UNIT": "nM", "EC50": 3}
